Where these numbers come from: patent US20200385371A1

// endpoint pIC50 / system WDR5 (Homo sapiens, UniProt P61964)
pIC50 here: minus log base 10 of the concentration, concentration in moles per litre.

Answered examples (5):
C[C@@H]1CN(c2nc(-c3c(F)cc(N4CCN(C)[C@@H](C)C4)c(NC(=O)c4c[nH]c(=O)cc4C(F)F)c3F)cs2)C[C@H](C)O1 [Example 132] ... 7.91
CC(C)OC(=O)N1CC=C(c2c(F)cc(N3C[C@@H](C)N(C)[C@@H](C)C3)c(NC(=O)c3c[nH]c(=O)cc3C(F)(F)F)c2F)CC1 [Example 133] ... 7.91
C[C@@H]1CN(c2cc(F)c(-c3ccc(OC4CCOCC4)nc3)c(F)c2NC(=O)c2c[nH]c(=O)cc2C(F)(F)F)C[C@H](C)N1C [Example 65] ... 7.99
C[C@@H]1CN(c2ncc(-c3c(F)cc(N4CCN(C)[C@@H](C)C4)c(NC(=O)c4cn(C)c(=O)cc4C(F)(F)F)c3F)cn2)C[C@@H](C)O1 [Example 165] ... 7.87
C[C@@H]1CN(c2cc(F)c(-c3ccnc(OCC4CC4)c3)c(F)c2NC(=O)c2c[nH]c(=O)cc2C(F)(F)F)C[C@H](C)N1C [Example 3] ... 7.57

Summary line: C[C@@H]1CN(c2cc(F)c(-c3cnc(N4CCOCC4)nc3)c(F)c2NC(=O)c2c[nH]c(=O)cc2C(F)(F)F)C[C@H](C)N1C [Example 2] , WDR5 (Homo sapiens, UniProt P61964), reported pIC50 = 7.79

----------
Quick record of pIC50 values for WDR5 (Homo sapiens).
Give only the number. pIC50 is defined as minus log10 of concentration in molar units.

Some entries whose results are on file:
C[C@@H]1CN(c2ncc(-c3c(F)cc(N4C[C@@H](C)N(C)[C@@H](C)C4)c(NC(=O)c4ccc(F)cc4C(F)F)c3F)cn2)C[C@H](C)O1 ... 7.84
COc1cc(N2CCC=C(c3c(F)cc(N4CCN(C)[C@@H](C)C4)c(NC(=O)c4c[nH]c(=O)cc4C(F)F)c3F)C2)ncn1 ... 7.87
C[C@H]1CN(c2cc(F)c(C3=CCCN(c4ccnc(C#N)n4)C3)c(F)c2NC(=O)c2c[nH]c(=O)cc2C(F)(F)F)CCN1C ... 7.80
C[C@@H]1CN(c2ncc(-c3c(F)cc(N4CCN(C)[C@@H](C)C4)c(NC(=O)c4cn(C)c(=O)cc4C(F)F)c3F)cn2)C[C@@H](C)O1 ... 7.85
C[C@H]1CN(c2ccc(-c3c(F)cc(N4CCN(C)[C@@H](C)C4)c(NC(=O)c4c[nH]c(=O)cc4C(F)F)c3F)cn2)CCO1 ... 7.64
CC(C)[C@@H]1CN(c2ncc(-c3c(F)cc(N4CCN(C)[C@@H](C)C4)c(NC(=O)c4c[nH]c(=O)cc4C(F)F)c3F)cn2)CCO1 ... 7.87
C[C@@H]1CN(c2ncc(-c3c(F)cc(N4CCN(C)[C@@H](C)C4)c(NC(=O)c4c[nH]c(=O)cc4C(F)F)c3F)cn2)C[C@@H](C)O1 ... 7.86
C[C@H]1CN(c2cc(F)c(C3=CCCN(c4ncc(F)cn4)C3)c(F)c2NC(=O)c2c[nH]c(=O)cc2C(F)(F)F)CCN1C ... 7.78

WDR5 (Homo sapiens) assay, compound C[C@@H]1CN(c2ncc(-c3c(F)cc(N4C[C@@H](C)N(C)[C@@H](C)C4)c(NC(=O)c4cn(C)c(=O)cc4C(F)(F)F)c3F)cn2)CCO1 , recorded pIC50 = 8.00

Bench note, WDR5 (Homo sapiens): C[C@@H]1CN(c2cc(F)c(C3=CCCN(C(=O)OC4(C)CCC4)C3)c(F)c2NC(=O)c2c[nH]c(=O)cc2C(F)(F)F)C[C@H](C)N1C , pIC50 reads 7.99

The compound C[C@@H]1CN(c2cc(F)c(-c3ccc(C(N)=O)c(F)c3)c(F)c2NC(=O)c2c[nH]c(=O)cc2C(F)(F)F)C[C@H](C)N1C on WDR5 (Homo sapiens): pIC50 was 7.71

Given the compound C[C@H]1CN(c2ncc(-c3c(F)cc(N4CCN(C)[C@@H](C)C4)c(NC(=O)c4c[nH]c(=O)cc4C(F)F)c3F)cn2)CCO1 and test system WDR5 (Homo sapiens), the measured pIC50 is 7.93

----------
Hi! I'm sharing some IC50 results obtained with UniProt:P61964.
Report the figure in nM without appending any unit label.

CC(C)[C@H]1CN(c2ncc(-c3c(F)cc(N4C[C@@H](C)N(C)[C@@H](C)C4)c(NC(=O)c4c[nH]c(=O)cc4C(F)F)c3F)cn2)CCO1 ... 12.5
COc1cc(N2CC=C(c3c(F)cc(N4CCN(C)[C@@H](C)C4)c(NC(=O)c4c[nH]c(=O)cc4C(F)F)c3F)CC2)ncn1 ... 19.7

Now, please, on to the next compound.
Entry COc1cnc(N2CC=C(c3c(F)cc(N4CCN(C)[C@@H](C)C4)c(NC(=O)c4c[nH]c(=O)cc4C(F)(F)F)c3F)CC2)nc1 under UniProt:P61964 had IC50 of 19.5

----------
Reported Kd values for a set of compounds
Biological target: WDR5 (Homo sapiens)
Assay: Surface Plasmon Resonance (SPR) assay
Assay type: binding
Parameters: Full length WDR5 with an N-terminal His tag and C-terminal AviTag; His tag (N); made in house; host or cells: E. coli
Conditions: read-out: SPR Kd
Protocol: Exemplary compounds of the application were dissolved in 100% DMSO at 10 mM, assayed fresh, and then stored at −20° C. for repeat studies and other experiments. Full length WDR5 with an N-terminal His tag and C-terminal AviTag (Avidity Inc.) was expressed in E. coli with coexpression of BirA to biotin label the protein in vivo. Purification was via Ni-NTA. SPR studies were performed using a Biacore™ T200 instrument (GE Health Sciences Inc.). […]
Respond with the bare value in nM.

Please review the entries below; each comes with its answer.
COc1cc(N2CC=C(c3c(F)cc(N4CCN(C)[C@@H](C)C4)c(NC(=O)c4c[nH]c(=O)cc4C(F)(F)F)c3F)CC2)ncn1 [Example 76] ... 1.42
C[C@@H]1CN(c2cc(F)c(C3=CCCN(c4ncccn4)C3)c(F)c2NC(=O)c2c[nH]c(=O)cc2C(F)(F)F)C[C@H](C)N1C [Example 15] ... 1.69

Reported WDR5 (Homo sapiens) Kd for item COc1cnc(N2CC=C(c3c(F)cc(N4C[C@@H](C)N(C)[C@@H](C)C4)c(NC(=O)c4c[nH]c(=O)cc4C(F)(F)F)c3F)CC2)nc1 [Example 137] was 2.57

Kd of COc1cc(N2CCC=C(c3c(F)cc(N4CCN(C)[C@@H](C)C4)c(NC(=O)c4c[nH]c(=O)cc4C(F)(F)F)c3F)C2)ncn1 [Example 68] , assay on WDR5 (Homo sapiens), is 1.37

The compound CC(C)[C@@H]1CN(c2ncc(-c3c(F)cc(N4C[C@@H](C)N(C)[C@@H](C)C4)c(NC(=O)c4c[nH]c(=O)cc4C(F)(F)F)c3F)cn2)CCO1 [Example 105] , tested on WDR5 (Homo sapiens), showed Kd of 3.89

Given the compound C[C@@H]1CN(c2cc(F)c(-c3ccc(N4CCO[C@@H](C)C4)nc3)c(F)c2NC(=O)c2c[nH]c(=O)cc2C(F)(F)F)C[C@H](C)N1C [Example 192] and test system WDR5 (Homo sapiens), the measured Kd is 0.97

----------
Listed below: pKd values for each entry.
target: WDR5 (Homo sapiens); experiment: Surface Plasmon Resonance (SPR) assay; type: binding; set-up: Full length WDR5 with an N-terminal His tag and C-terminal AviTag; His tag (N); made in house; host or cells: E. coli; conditions: Table 2, effect of difluoro substitution; read-out: KD (SPR)
Here pKd is given on a logarithmic scale as minus log10 of the concentration in mol/L.

Solved entries:
C[C@@H]1CN(c2cc(F)c(-c3cnc(N4CCOCC4)nc3)c(F)c2NC(=O)c2c[nH]c(=O)cc2C(F)(F)F)C[C@H](C)N1C [drawing 479, reference compound] ... 8.43
C[C@@H]1CN(c2ncc(-c3cc(NC(=O)c4c[nH]c(=O)cc4C(F)(F)F)c(N4C[C@@H](C)N(C)[C@@H](C)C4)cc3F)cn2)C[C@H](C)O1 [reference compound] ... 9.40

Query compound follows.
The value of pKd measured for the compound C[C@@H]1CN(c2ncc(-c3ccc(N4C[C@@H](C)N(C)[C@@H](C)C4)c(NC(=O)c4c[nH]c(=O)cc4C(F)(F)F)c3)cn2)C[C@H](C)O1 [reference compound] turned out to be 8.54

----------
Listing of recorded pKd by entry.
biological target: WDR5 (Homo sapiens, UniProt P61964); assay: Surface Plasmon Resonance (SPR) assay; assay type: binding; design: Full length WDR5 with an N-terminal His tag and C-terminal AviTag; His tag (N); made in house; host or cells: E. coli; conditions: read-out: SPR Kd
Remember the convention: pKd equals -log10 of concentration in molar.

CC(C)OC(=O)N1CCC=C(c2c(F)cc(N3C[C@@H](C)N(C)[C@@H](C)C3)c(NC(=O)c3c[nH]c(=O)cc3C(F)(F)F)c2F)C1 ... 8.72
C[C@H]1CN(c2cc(F)c(C3=CCN(C(=O)OC4CC(F)(F)C4)CC3)c(F)c2NC(=O)c2c[nH]c(=O)cc2C(F)(F)F)CCN1C ... 8.87
CC(C)[C@@H]1CN(c2ncc(-c3c(F)cc(N4CCN(C)[C@@H](C)C4)c(NC(=O)c4c[nH]c(=O)cc4C(F)F)c3F)cn2)CCO1 ... 9.08
C[C@@H]1CN(c2ncc(-c3c(F)cc(N4CCN(C)[C@@H](C)C4)c(NC(=O)c4c[nH]c(=O)cc4C(F)F)c3F)cn2)C[C@H](C)O1 ... 9.21

So for C[C@@H]1CN(c2ccc(-c3c(F)cc(N4C[C@@H](C)N(C)[C@@H](C)C4)c(NC(=O)c4c[nH]c(=O)cc4C(F)F)c3F)cn2)C[C@H](C)O1 , the logged pKd turned out to be 8.97

// recorded pKd for Cc1sc(-c2c(F)cc(N3CCN(C)[C@@H](C)C3)c(NC(=O)c3ccc(F)cc3C(F)F)c2F)nc1C(=O)N1CCCC1 : 8.93

Documented pKd of COc1cnc(N2CCC=C(c3c(F)cc(N4CCN(C)[C@@H](C)C4)c(NC(=O)c4c[nH]c(=O)cc4C(F)F)c3F)C2)nc1 : 8.57

According to the records, this compound C[C@H]1CN(c2cc(F)c(C3=CCCN(C(=O)OC4(C)CCC4)C3)c(F)c2NC(=O)c2c[nH]c(=O)cc2C(F)F)CCN1C displays pKd of 8.66

Sure, the documented pKd for C[C@H]1CN(c2cc(F)c(-c3ccc4c(c3)OCO4)c(F)c2NC(=O)c2c[nH]c(=O)cc2C(F)(F)F)CCN1C is 8.93

Quick note, pKd for C[C@@H]1CN(c2cc(F)c(-c3cnc(N4C[C@H](C)O[C@@H](C)C4)nc3)c(F)c2NC(=O)c2c[nH]c(=O)cc2C(F)F)C[C@H](C)N1C landed at 8.87

Looking up CC(C)[C@H]1CN(c2ncc(-c3c(F)cc(N4C[C@@H](C)N(C)[C@@H](C)C4)c(NC(=O)c4c[nH]c(=O)cc4C(F)F)c3F)cn2)CCO1 , I see its pKd listed as 8.70

For record C[C@@H]1CN(c2nccc(-c3c(F)cc(N4C[C@@H](C)N(C)[C@@H](C)C4)c(NC(=O)c4c[nH]c(=O)cc4C(F)F)c3F)n2)C[C@H](C)O1 the listed pKd is 8.94
